# MEASUREMENT_NOTES: Total body clearance was determined in SD rats when administered intravenously, at 1 mg/kg compound dosage
# Type: ADME, organism-based
# Set-up: dose 1 mg/kg, route intravenous
# PARTICULARS: Sprague-Dawley, rat, in vivo, iv, read-out: CLtotal
READOUT: clearance (mL/min/kg)
Numbers only, in mL/min/kg.

Given the entry CCc1cc(-c2cc(NC(=O)C3Cc4ccc5ccccc5c4C3)[nH]n2)ccn1 (stereo in doubt; (-)-7) , report its measured clearance.
9.52

###

# MEASUREMENT_NOTES: Half life (1 mg/kg) was determined in SD rats when administered intravenously
# Format: ADME, organism-based
# PARTICULARS: Sprague-Dawley, rat, in vivo, iv
READOUT: half-life (min)
One number for each entry, in min.

Give its half-life value. Item: CCc1cc(-c2cc(NC(=O)C3Cc4ccc5ccccc5c4C3)[nH]n2)ccn1 (stereo in doubt; (-)-7)
52.8
